MEASUREMENT_TARGET: Coagulation factor XII (Homo sapiens) (UniProt P00748)
Sequence (P00748 20-372 limits assumed): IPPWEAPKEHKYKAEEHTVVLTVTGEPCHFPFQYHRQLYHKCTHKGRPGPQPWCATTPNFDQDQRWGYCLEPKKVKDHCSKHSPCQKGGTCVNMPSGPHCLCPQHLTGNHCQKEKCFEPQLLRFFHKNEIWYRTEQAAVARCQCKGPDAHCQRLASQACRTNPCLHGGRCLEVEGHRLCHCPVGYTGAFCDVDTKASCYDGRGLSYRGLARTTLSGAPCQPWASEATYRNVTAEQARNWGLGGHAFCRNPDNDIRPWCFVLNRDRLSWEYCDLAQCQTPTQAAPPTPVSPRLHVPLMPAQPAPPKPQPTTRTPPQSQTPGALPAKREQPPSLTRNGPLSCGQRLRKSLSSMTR
Sequence (P00748 373-615 limits assumed): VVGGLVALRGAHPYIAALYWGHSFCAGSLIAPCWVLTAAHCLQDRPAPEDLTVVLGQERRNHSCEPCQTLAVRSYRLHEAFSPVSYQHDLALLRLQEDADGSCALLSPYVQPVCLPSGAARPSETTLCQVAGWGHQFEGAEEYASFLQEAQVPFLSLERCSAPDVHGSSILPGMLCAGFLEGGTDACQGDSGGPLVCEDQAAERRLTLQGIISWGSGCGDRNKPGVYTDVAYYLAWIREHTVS
ASSAY_METHOD_TEXT: blockers of FXIIa protease activity – biochemical, pooled compound mixtures, fluorogenic substrate, primary screen (AID 684)
REPORTED_CONDITIONS: purified FXIIa, at 5 µM
Screen size: about 62,000 compounds; about 95 (0.2%) were called active. Rule as the data show it: active = inhibition above about 20% (passing the limit was not always enough); inactive = the rest. The list comes from a sample in which actives are over-represented; it also holds close analogues and randomly drawn compounds.
Select the matching outcome among Y (active), N (inactive)

Which outcome did this test record for the compound Cc1nc2ccc(NC(=O)N3CCC(c4ccccc4)C3)cc2nc1C (stereo not drawn) ?
N

Which outcome did this test record for the compound CCOc1ccc(CCNC(=O)C(CC)n2nc(C)n3c(cc4sccc43)c2=O)cc1OCC (stereo not drawn) ?
N

Which outcome did this test record for the compound COCC(C)N=CC1=C(O)CC(C)(C)CC1=O (stereo not drawn) ?
N

Which outcome did this test record for the compound O=S(=O)(c1ccccc1)N(CC(O)CN1CCCCC1)c1ccccc1 (stereo not drawn) ?
N

Which outcome did this test record for the compound O=C(c1cc(-c2ccccc2O)on1)N1CCCC1 ?
N

Which outcome did this test record for the compound CCCCOC(=O)Nc1nccs1 ?
N

Which outcome did this test record for the compound COCc1cc(C)nc(Nc2cc(C)ccc2C)c1C#N ?
N

Which outcome did this test record for the compound Cc1c(NC(=O)c2coc(=O)c(Br)c2)c(=O)n(-c2ccccc2)n1C ?
N

Which outcome did this test record for the compound CC1(C)C2CCC1(C)C(OC(=O)CCn1ccnc1)C2 (stereo not drawn) ?
N

Which outcome did this test record for the compound CC(Sc1sc(=S)sc1SC(C)C(=O)O)C(=O)O (stereo not drawn) ?
N

Which outcome did this test record for the compound c1c2c(cc3sc(N4CCCCC4)nc13)OCCO2 ?
N

Which outcome did this test record for the compound CCCn1c(C(O)c2ccc(OCC)cc2)nc2ccccc21 (stereo not drawn) ?
N

Which outcome did this test record for the compound C=CCn1cnc2scc(-c3ccccc3)c2c1=O ?
N

Which outcome did this test record for the compound CCC1=[N+]([O-])C(C)(/C(C)=N\O)N(O)C1(C)C (stereo not drawn) ?
N

Which outcome did this test record for the compound CC1CCCC(NC(=O)CSc2nccn2C)C1C (stereo not drawn) ?
N

Which outcome did this test record for the compound O=C(CN1CCOCC1)Nc1cc(Cl)ccc1Cl ?
N

Which outcome did this test record for the compound COc1ccc(NC(=O)CN(C)S(=O)(=O)c2ccccc2)cc1OC ?
N

Which outcome did this test record for the compound Cc1cccc(C(=O)Nc2ccc(CC(=O)O)cc2)c1 ?
N

Which outcome did this test record for the compound CCc1nc(C)cn1S(=O)(=O)c1cc(OC)c(C)cc1C ?
N

Which outcome did this test record for the compound C=CCNC(=O)CSc1nc2sc(C)c(C)c2c(=O)[nH]1 ?
N

Which outcome did this test record for the compound COc1cc(OC)c(C(=O)Nc2ccc(N(C)C)cc2)cc1OC ?
N

Which outcome did this test record for the compound CCn1cc(C(=O)NCC2COc3ccccc3O2)c2cc(OC)c(OC)cc2c1=O (stereo not drawn) ?
N

Which outcome did this test record for the compound COc1ccc(S(=O)(=O)N2CCN(c3ncnc4c(-c5ccccc5)nsc34)CC2)cc1 ?
N

Which outcome did this test record for the compound Cc1cccc(NC(=O)CSc2nnc(NC(=O)CN3CCOCC3)s2)c1 ?
N

Which outcome did this test record for the compound CC12CCC(C(=O)N3CCN(c4ncccn4)CC3)(c3nc4ccccc4nc31)C2(C)C (stereo not drawn) ?
N

Which outcome did this test record for the compound Cn1c(=O)c2[nH]c(NCC3CCCO3)nc2n(-c2ccccc2)c1=O (stereo not drawn) ?
N

Which outcome did this test record for the compound COCc1cc(C)nc(SCC(=O)Nc2cccc(C)c2)c1C#N ?
Y

Which outcome did this test record for the compound O=C(NCc1cccnc1)c1ccc(CS(=O)(=O)c2ccc(Br)cc2)o1 ?
N

Which outcome did this test record for the compound O=C(COc1ccccc1)N1CCc2ccccc2C1 ?
N

Which outcome did this test record for the compound CCCn1c(SCC(N)=O)nnc1C(C)C ?
N

Which outcome did this test record for the compound Cc1cc(C)c(C#N)c(SCS(=O)c2ccc(C(C)(C)C)cc2)n1 (stereo not drawn) ?
N

Which outcome did this test record for the compound N#Cc1c(N)sc2c1CCN(C(=O)OCc1ccccc1)C2 ?
N

Which outcome did this test record for the compound COc1ccccc1C(=O)C(O)c1ccccc1OC (stereo not drawn) ?
N

Which outcome did this test record for the compound O=C(Nc1cccc2cccnc12)c1cccc(N2C(=O)CCC2=O)c1 ?
N

Which outcome did this test record for the compound CCCC1CC(C)(C(=O)Cn2[nH]c(=O)ccc2=O)OC1=O (stereo not drawn) ?
N

Which outcome did this test record for the compound CCCOC(=O)c1[nH]c2c(c1C)C(=O)CC(c1cc(OC)c(OC)c(OC)c1)C2 (stereo not drawn) ?
N

Which outcome did this test record for the compound C=CCn1c(CSc2nc3ccccc3s2)nnc1SCC(=O)NCc1ccco1 ?
N

Which outcome did this test record for the compound CCC(Sc1nncn1C)C(=O)Nc1nnc(-c2ccc(Cl)cc2)s1 (stereo not drawn) ?
N
